- target-entity: human Kv3.1 channels (hKv3.1) (Homo sapiens)
- Construct: expressed in transfected cells
- Sequence (P48547 1-511): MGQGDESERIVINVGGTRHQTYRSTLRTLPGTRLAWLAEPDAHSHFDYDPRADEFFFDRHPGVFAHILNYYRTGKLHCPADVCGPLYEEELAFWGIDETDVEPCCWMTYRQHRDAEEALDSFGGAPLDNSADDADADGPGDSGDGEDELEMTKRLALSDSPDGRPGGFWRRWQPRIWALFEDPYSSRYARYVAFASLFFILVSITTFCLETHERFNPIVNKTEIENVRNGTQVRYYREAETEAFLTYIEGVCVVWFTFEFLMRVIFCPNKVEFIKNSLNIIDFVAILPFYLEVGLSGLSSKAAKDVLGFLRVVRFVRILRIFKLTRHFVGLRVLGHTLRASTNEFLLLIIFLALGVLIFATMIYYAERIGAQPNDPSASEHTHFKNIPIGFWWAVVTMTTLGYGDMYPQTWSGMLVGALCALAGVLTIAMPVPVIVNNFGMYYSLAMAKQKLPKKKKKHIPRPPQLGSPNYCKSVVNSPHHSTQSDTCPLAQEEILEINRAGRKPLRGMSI
- protocol-details: Kv3.1 channel modulation, IonWorks Quattro planar array electrophysiology
- Assay type: cell-based
- condition-set: HEK-293 cells expressing human Kv3.1; currents at −15 mV voltage step; normalised to 50 microM reference compound and vehicle; read-out: Kv3.1 pEC50 (converted)
result-type: EC50 (nM)
The figure you give is taken to be in nM; do not add the unit.

| molecule | target-entity | EC50 / nM |
| --- | --- | --- |
| COc1cccc(Oc2ccc(N3C(=O)NC(C)(C)C3=O)c(N)n2)c1 [Example 6] | human Kv3.1 channels (hKv3.1) (Homo sapiens) | 12600 |
| CC[C@H]1NC(=O)N(c2ccc(Oc3ccc(C)c4c3C3(CC3)CO4)nc2N)C1=O [Example 2] | human Kv3.1 channels (hKv3.1) (Homo sapiens) | 501 |
| CC1(C)NC(=O)N(c2ccc(Oc3cccc4c3C3(CC3)CO4)nc2N)C1=O [Example 3] | human Kv3.1 channels (hKv3.1) (Homo sapiens) | 501 |
| CC[C@H]1NC(=O)N(c2ccc(Oc3ccc(C)c(OC(F)(F)F)c3)nc2N)C1=O [Example 8] | human Kv3.1 channels (hKv3.1) (Homo sapiens) | 3160 |
| COc1nc(Oc2ccc(C)c(OC(F)(F)F)c2)ccc1N1C(=O)NC(C)(C)C1=O [Reference Example 7, reference compound] | human Kv3.1 channels (hKv3.1) (Homo sapiens) | 12600 |

Now look at this entry.
(Q) Record CC1(C)NC(=O)N(c2ccc(Oc3cccc4c3C(C)(C)CO4)nc2N)C1=O [Example 5] : what is its EC50 with human Kv3.1 channels (hKv3.1) (Homo sapiens)?
(A) 631
